- TARGET_SYSTEM: Elastase from human neutrophils (Homo sapiens, UniProt P08246)
- Sequence (P08246 30-267): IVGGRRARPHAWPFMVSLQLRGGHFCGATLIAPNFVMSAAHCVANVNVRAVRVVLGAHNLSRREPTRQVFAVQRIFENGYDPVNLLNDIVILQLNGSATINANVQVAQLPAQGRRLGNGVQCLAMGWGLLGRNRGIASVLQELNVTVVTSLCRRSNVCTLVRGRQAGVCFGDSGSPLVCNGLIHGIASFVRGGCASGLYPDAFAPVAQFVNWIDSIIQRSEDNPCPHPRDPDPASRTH
- EXPERIMENTAL_DETAILS: Enzymatic assay, elastase
- EXPERIMENTAL_CONDITIONS: Elastase IC50
Where a SMILES comes first, the peptide text is derived from it.
RECORDED_METRIC: pIC50
Units for pIC50: none; it is -log10 of a concentration expressed in mol/L.

Lookup: pIC50 / Elastase from human neutrophils (Homo sapiens, UniProt P08246) / CCCC[C@@H]1NC(=O)[C@H](CCC(N)=O)NC(=O)[C@H]2CCCN2C(=O)[C@H](Cc2ccc(O)cc2)NC(=O)[C@@H]2CSSC[C@H](NC1=O)C(=O)N[C@@H]([C@@H](C)O)C(=O)N[C@@H](C)C(=O)N[C@@H](CO)C(=O)N[C@@H](CC1CCCCC1)C(=O)N1CCC[C@H]1C(=O)N1CCC[C@H]1C(=O)N[C@@H](CCC(N)=O)C(=O)N2 [compound 170] (HELM PEPTIDE1{[Nle].C.T.A.S.[Cha].P.P.Q.C.Y.[dP].Q}$PEPTIDE1,PEPTIDE1,2:R3-10:R3|PEPTIDE1,PEPTIDE1,1:R1-13:R2$$$V2.0)
7.80

----------
- TARGET_SYSTEM: Elastase from human neutrophils (Homo sapiens, UniProt P08246)
- EXPERIMENTAL_DETAILS: Enzymatic assay, elastase
- EXPERIMENTAL_CONDITIONS: Elastase IC50
Where a SMILES comes first, the peptide text is derived from it.
Entries annotated with measured pIC50
Units for pIC50: none; it is -log10 of a concentration expressed in mol/L.

[[record]]
molecule = "CCCC[C@@H]1NC(=O)[C@H](CCC(N)=O)NC(=O)[C@H]2CCCN2C(=O)[C@H](CC2CCCCC2)NC(=O)[C@@H]2CSSC[C@H](NC1=O)C(=O)N[C@@H]([C@@H](C)O)C(=O)N[C@@H](C)C(=O)N[C@@H](CO)C(=O)N[C@@H](CC1CCCCC1)C(=O)N1CCC[C@H]1C(=O)N1CCC[C@H]1C(=O)N[C@@H](CCC(N)=O)C(=O)N2 [compound 172] (HELM PEPTIDE1{[Nle].C.T.A.S.[Cha].P.P.Q.C.[Cha].[dP].Q}$PEPTIDE1,PEPTIDE1,2:R3-10:R3|PEPTIDE1,PEPTIDE1,1:R1-13:R2$$$V2.0)"
reading = 7.89


Turning now to a further molecule:
Suppose we examine the molecule CCCC[C@@H]1NC(=O)[C@@H]2CCCN2C(=O)[C@H]2CCCN2C(=O)[C@H](Cc2ccc(O)cc2)NC(=O)[C@@H]2CSSC[C@H](NC1=O)C(=O)N[C@@H]([C@@H](C)O)C(=O)N[C@@H](C)C(=O)N[C@@H](CO)C(=O)N[C@@H](CC(C)(C)C)C(=O)N1CCC[C@H]1C(=O)N1CCC[C@H]1C(=O)N[C@@H](CCC(N)=O)C(=O)N2 [Ex. 85] (HELM PEPTIDE1{[Nle].C.T.A.S.[CC(C)(C)C[C@H](N[*:1])C(=O)[*:2]].P.P.Q.C.Y.[dP].P}$PEPTIDE1,PEPTIDE1,2:R3-10:R3|PEPTIDE1,PEPTIDE1,1:R1-13:R2$$$V2.0) ; what pIC50 value has been reported?
7.55

----------
- TARGET_SYSTEM: Trypsin, from human pancreas (Homo sapiens, UniProt P07477)
- EXPERIMENTAL_DETAILS: Enzymatic assay, trypsin
- EXPERIMENTAL_CONDITIONS: at 100 μM
Where a SMILES comes first, the peptide text is derived from it.
RECORDED_METRIC: Trypsin at 100 μM % (%)
Only the number, expressed in %, is required.

[[record]]
compound = "CCCCCC[C@@H]1NC(=O)[C@@H]2CCCN2C(=O)[C@H]2CCCN2C(=O)[C@H](Cc2ccc(O)cc2)NC(=O)[C@@H]2CSSC[C@H](NC1=O)C(=O)N[C@@H]([C@@H](C)O)C(=O)N[C@@H](C)C(=O)N[C@@H](CO)C(=O)N[C@@H]([C@@H](C)CC)C(=O)N1CCC[C@H]1C(=O)N1CCC[C@H]1C(=O)N[C@@H](CCC(N)=O)C(=O)N2 [Ex. 99] (HELM PEPTIDE1{[CCCCCC[C@H](N[*:1])C(=O)[*:2]].C.T.A.S.I.P.P.Q.C.Y.[dP].P}$PEPTIDE1,PEPTIDE1,2:R3-10:R3|PEPTIDE1,PEPTIDE1,1:R1-13:R2$$$V2.0)"
scale_unit = "%"
reading = 30.5

[[record]]
compound = "CC[C@@H](C)[C@H]1NC(=O)[C@H](CO)NC(=O)[C@@H]2CSSC[C@H](NC(=O)[C@H](Cc3ccccc3)NC(=O)[C@@H]3CCCN3C1=O)C(=O)N[C@@H]([C@@H](C)O)C(=O)N[C@@H](CCCCN)C(=O)N[C@@H](CO)C(=O)N[C@@H](CC(=O)O)C(=O)N1CCC[C@H]1C(=O)N1CCC[C@H]1C(=O)N[C@@H]([C@@H](C)CC)C(=O)N2 [Ex. 50] (HELM PEPTIDE1{F.C.T.K.S.D.P.P.I.C.S.[dI].P}$PEPTIDE1,PEPTIDE1,2:R3-10:R3|PEPTIDE1,PEPTIDE1,1:R1-13:R2$$$V2.0)"
scale_unit = "%"
reading = 94

[[record]]
compound = "C[C@@H](O)[C@@H]1NC(=O)[C@@H]2CSSC[C@H](NC(=O)[C@H](CC3CCCCC3)NC(=O)[C@@H]3CCCN3C(=O)[C@@H]3CCCN3C(=O)[C@H](CC(=O)O)NC(=O)[C@H](CO)NC(=O)[C@H](CCCCN)NC1=O)C(=O)N[C@@H](CO)C(=O)N1CCC[C@@H]1C(=O)N1CCC[C@H]1C(=O)N[C@@H](Cc1ccccc1)C(=O)N2 [Ex. 16] (HELM PEPTIDE1{F.C.T.K.S.D.P.P.[Cha].C.S.[dP].P}$PEPTIDE1,PEPTIDE1,2:R3-10:R3|PEPTIDE1,PEPTIDE1,1:R1-13:R2$$$V2.0)"
scale_unit = "%"
reading = 90.0


Turning now to a further compound:
Lookup: Trypsin at 100 μM % / Trypsin, from human pancreas (Homo sapiens, UniProt P07477) / CCCC[C@@H]1NC(=O)[C@@H]2CCCN2C(=O)[C@H]2CCCN2C(=O)[C@H](Cc2ccccc2Cl)NC(=O)[C@@H]2CSSC[C@H](NC1=O)C(=O)N[C@@H]([C@@H](C)O)C(=O)N[C@@H](C)C(=O)N[C@@H](CO)C(=O)N[C@@H]([C@@H](C)CC)C(=O)N1CCC[C@H]1C(=O)N1CCC[C@H]1C(=O)N[C@@H](CCC(N)=O)C(=O)N2 [Ex. 96] (HELM PEPTIDE1{[Nle].C.T.A.S.I.P.P.Q.C.[O=C([C@H](Cc1ccccc1Cl)N[*:1])[*:2]].[dP].P}$PEPTIDE1,PEPTIDE1,2:R3-10:R3|PEPTIDE1,PEPTIDE1,1:R1-13:R2$$$V2.0)
7.5

----------
Entries annotated with measured Tryptase at 100 μM %
- Test system: Tryptase, from human lung
- EXPERIMENTAL_DETAILS: Enzymatic assay, tryptase
- EXPERIMENTAL_CONDITIONS: at 100 μM
Where a SMILES comes first, the peptide text is derived from it.
The reply should read as a number followed by its unit.

The examples below pair each entry with its known result.
[[record]]
compound = "CCCC[C@@H]1NC(=O)[C@@H]2CCCN2C(=O)[C@H]2CCCN2C(=O)[C@H](Cc2ccc(O)cc2)NC(=O)[C@@H]2CSSC[C@H](NC1=O)C(=O)N[C@@H](C)C(=O)N[C@@H](C)C(=O)N[C@@H](CO)C(=O)N[C@@H]([C@@H](C)CC)C(=O)N1CCC[C@H]1C(=O)N1CCC[C@H]1C(=O)N[C@@H](CCC(N)=O)C(=O)N2 [Ex. 86] (HELM PEPTIDE1{[Nle].C.A.A.S.I.P.P.Q.C.Y.[dP].P}$PEPTIDE1,PEPTIDE1,2:R3-10:R3|PEPTIDE1,PEPTIDE1,1:R1-13:R2$$$V2.0)"
target_system = "Tryptase, from human lung"
reading = "0%"

[[record]]
compound = "CCCC[C@@H]1NC(=O)[C@H]([C@@H](C)O)NC(=O)[C@@H]2CSSC[C@H](NC(=O)[C@H]([C@@H](C)CC)NC(=O)[C@@H]3CCCN3C(=O)[C@@H]3CCCN3C(=O)[C@H](CC(=O)O)NC(=O)[C@H](CO)NC1=O)C(=O)N[C@@H](CCCNC(=N)N)C(=O)N1CCC[C@@H]1C(=O)N1CCC[C@H]1C(=O)N[C@@H]([C@@H](C)CC)C(=O)N2 [Ex. 22] (HELM PEPTIDE1{I.C.T.[Nle].S.D.P.P.I.C.R.[dP].P}$PEPTIDE1,PEPTIDE1,2:R3-10:R3|PEPTIDE1,PEPTIDE1,1:R1-13:R2$$$V2.0)"
target_system = "Tryptase, from human lung"
reading = "3.8%"

[[record]]
compound = "CC[C@H](C)[C@@H]1NC(=O)[C@@H]2CCCN2C(=O)[C@@H]2CCCN2C(=O)[C@H](CC(=O)O)NC(=O)[C@H](CO)NC(=O)[C@H](CCCCN)NC(=O)[C@H]([C@@H](C)O)NC(=O)[C@@H]2CSSC[C@H](NC1=O)C(=O)N[C@@H](CCCNC(=N)N)C(=O)N1CCC[C@@H]1C(=O)N1CCC[C@H]1C(=O)N[C@@H](C1CCCCC1)C(=O)N2 [Ex. 12] (HELM PEPTIDE1{[O=C([C@@H](N[*:1])C1CCCCC1)[*:2]].C.T.K.S.D.P.P.I.C.R.[dP].P}$PEPTIDE1,PEPTIDE1,2:R3-10:R3|PEPTIDE1,PEPTIDE1,1:R1-13:R2$$$V2.0)"
target_system = "Tryptase, from human lung"
reading = "59.3%"


Suppose we examine the compound CCCC[C@@H]1NC(=O)[C@@H]2CCCN2C(=O)[C@H]2CCCN2C(=O)[C@H](CC2CCCCC2)NC(=O)[C@@H]2CSSC[C@H](NC1=O)C(=O)N[C@@H]([C@@H](C)O)C(=O)N[C@@H](C)C(=O)N[C@@H](CO)C(=O)N[C@@H]([C@@H](C)CC)C(=O)N1CCC[C@H]1C(=O)N1CCC[C@H]1C(=O)N[C@@H](CCC(N)=O)C(=O)N2 [Ex. 97] (HELM PEPTIDE1{[Nle].C.T.A.S.I.P.P.Q.C.[Cha].[dP].P}$PEPTIDE1,PEPTIDE1,2:R3-10:R3|PEPTIDE1,PEPTIDE1,1:R1-13:R2$$$V2.0) ; what Tryptase at 100 μM % value has been reported?
0%
